B1: Kinesin-like protein KIF16B, residues 1213 to 1273; numbered along this chain, Q96L93 (parent)
chain: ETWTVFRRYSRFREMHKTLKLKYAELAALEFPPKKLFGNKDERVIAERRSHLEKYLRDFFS

- Variants of: B1
- assay: abundance fitness (aPCA) (normalised: wild type 0, dead -1); higher = more abundant; growth selection in yeast, the domain comes from the species named
- condition info: Homo sapiens
The entries below are paired with their reported abundance fitness.

{"columns": ["variant annotation", "abundance fitness"],
 "data": [
  ["P32W", 0.353],
  ["F6D", -0.474],
  ["R8D", -0.271],
  ["K17M", -0.343],
  ["D41I", 0.394],
  ["T18E", -0.223],
  ["H16M", 0.311],
  ["F60I", -0.143],
  ["R49W", -0.064],
  ["K20M", -0.746],
  ["G38C", -0.46],
  ["A46V", -0.057],
  ["E42Q", -0.056],
  ["H16A", 0.135],
  ["L52S", -0.647],
  ["R57L", -0.368],
  ["K17A", -0.325],
  ["E42T", 0.078],
  ["F12R", -0.921],
  ["F31V", -0.545],
  ["I45E", 0.107],
  ["E25R", -0.352],
  ["K20D", -0.945],
  ["L56C", 0.032],
  ["H51G", 0.248],
  ["F59K", -0.204],
  ["V5T", 0.094],
  ["Y9V", 0.019],
  ["R13E", -0.354],
  ["H51W", -0.069],
  ["I45V", 0.009],
  ["E25A", -0.309],
  ["S61R", 0.143],
  ["T18N", -0.514],
  ["S10L", -0.007],
  ["E1K", -0.26],
  ["Y55G", 0.021],
  ["E25L", -0.465],
  ["F12M", -0.103],
  ["R11Y", -0.154],
  ["R43M", -0.32],
  ["R7S", 0.141],
  ["L21N", -0.289],
  ["E1D", -0.001],
  ["T4H", -0.406],
  ["R48Q", -0.291]
]}
